Tested on: SNB-19 CNS
Assay: NCI-60 one-dose screen, 48 h
Details: 10 µM unless noted
About 83,000 compounds went through this panel and 20% of them were active in at least one assay; those are over-represented in the sample as a whole. Activity calls are given as the source filed them. Rule for the calls: active = growth percent below 10; inactive = the rest.
A correct response names exactly one class from active, inactive

Reference set, count: 8
- molecule: "O=C1/C(=C/c2ccc([N+](=O)[O-])s2)Oc2ccc(Br)cc21"
  system_name: "SNB-19 CNS"
  label: "active"
- molecule: "CN(CCOc1ccc(CC2SC(=O)NC2=O)cc1)c1ccccn1 (centres undefined)"
  system_name: "SNB-19 CNS"
  label: "inactive"
- molecule: "CC[C@@H]1OC(=O)[C@H](C)[C@@H](O[C@H]2C[C@@](C)(OC)[C@@H](O)[C@H](C)O2)[C@H](C)[C@@H](O[C@@H]2O[C@H](C)C[C@H](N(C)C)[C@H]2O)[C@](C)(O)C[C@@H](C)[C@@H]2N[C@@H](COCCOC)O[C@H]([C@H]2C)[C@]1(C)O"
  system_name: "SNB-19 CNS"
  label: "inactive"
- molecule: "O=C(Nc1ccc(Cl)cc1)c1cc2c(cc1O)[nH]c1ccccc12"
  system_name: "SNB-19 CNS"
  label: "inactive"
- molecule: "O=C1OCC/C1=C\\OCCCO/C=C1\\CCOC1=O"
  system_name: "SNB-19 CNS"
  label: "inactive"
- molecule: "Nc1ncc(-c2cnn(C3CCNCC3)c2)cc1-c1nc2cc(Cl)ccc2o1"
  system_name: "SNB-19 CNS"
  label: "active"
- molecule: "COc1ccc(/C=C2\\NC(=S)NC2=O)cc1"
  system_name: "SNB-19 CNS"
  label: "inactive"
- molecule: "Cc1c(NCc2nnc3n(Cc4ccccc4)c(=O)c4c5c(sc4n23)CCCC5)c(=O)n(-c2ccccc2)n1C"
  system_name: "SNB-19 CNS"
  label: "inactive"

Here's the next entry for you.
Please state the recorded outcome for this molecule: C=C1c2c(C)nn(-c3ccc(C#CCOC4OC(CO)C(O)C(O)C4O)cc3)c2N(C)C23C[C@H]1C1(C)c4c(C)nn(-c5ccc(C#CCOC6OC(CO)C(O)C(O)C6O)cc5)c4N(C)C(C)(C[C@H]12)C3 (some centres undefined)
active
